B1: tRNA (parent)
chain: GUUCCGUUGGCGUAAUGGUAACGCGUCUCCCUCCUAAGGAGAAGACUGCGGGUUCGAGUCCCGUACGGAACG

Variants of: B1
Assay: yeast fitness relative to wild type (ratio to wild type); higher = fitter; tRNA-Arg(CCU), competitive growth, 37 C, YPD
This sample holds only a part of the variants without activity.
Assign Met to entries whose yeast fitness meets or exceeds 0.6; assign Not met to the rest.

changes | classification
C4U C24U C55U | Not met
G23C U28C C46G C62G | Not met
G6C U53A C60A | Not met
C5G G25A A42C G68A | Not met
A15G U35A A57G | Not met
G52U A65G | Met
A45G C61G A65C A70U | Not met
C24U U32G C49U C60A | Met
C29U A65U | Met
C5U G50A C66U | Met
G10C U26A C33U A70G | Not met
G17C U32A C46A | Not met
A43C A45U | Met
C24U C31G U32A A43C | Not met
C49U C55A | Not met
A15U G39C A42C A65C | Not met
A40C A57C | Met
A20G G25C | Met
C4A C27U A37G | Not met
G25C C66A | Met
C5U U16A U47C | Met
C34U C49U C61U | Not met
C5A U8C C27U A40G C49U C55G | Not met
U2C C24U G44C | Not met
G12C G39C G68C | Not met
A20C C22U A40U A65G A69C | Not met
U3A G39A C55U U59G G68C | Not met
C11G A20U C24A G25C A70G | Not met
A14U G44C G51A G63A A70U | Not met
C5A C27G C30U U32C A36G A37U G67A | Not met

Hey, just so you know, these numbers are from the RNAGym collection of RNA variant scans (doi:10.1126/science.aae0568).
